Provide the recorded Bliss excess for the entries that follow.
Test system: HCC1419 (Breast Carcinoma)
Experiment Summary: Bliss excess, mean over the matrix (fraction); higher = more synergy;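 also: after 72 h of two-drug dosing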

The measured Bliss excess associated with CN(CCO)CC[C@H](CSc1ccccc1)Nc1ccc(S(=O)(=O)NC(=O)c2ccc(N3CCC([C@@H](O)c4ccccc4-c4ccc(Cl)cc4)CC3)cc2)cc1S(=O)(=O)C(F)(F)F [AZD4320] + C=CCn1c(=O)c2cnc(Nc3ccc(N4CCN(C)CC4)cc3)nc2n1-c1cccc(C(C)(C)O)n1 [AZD1775] (first compound max 1 µM, partner max 1 µM) reads -0.0722

C=CCn1c(=O)c2cnc(Nc3ccc(N4CCN(C)CC4)cc3)nc2n1-c1cccc(C(C)(C)O)n1 [AZD1775] + C[C@@H]1COCCN1C2=NC(=NC(=C2)C3(CC3)[S@](=N)(=O)C)C4=C5C=CNC5=NC=C4 [AZD6738] (first compound max 1 µM, partner max 10 µM) yielded Bliss excess of -0.0034

Bliss excess for COc1nnc2ccc(N3CCC(c4ccc(OCCN5CCN(C)C(=O)[C@H]5C)cc4)CC3)nn12 [AZD5153] + C[C@@H]1COCCN1C2=NC(=NC(=C2)C3(CC3)[S@](=N)(=O)C)C4=C5C=CNC5=NC=C4 [AZD6738] (first compound max 1 µM, 7x7, partner max 10 µM) is -0.0517

---

Test system: ST486 (Burkitt's Lymphoma)
Experiment Summary: Bliss excess, mean over the matrix (fraction); higher = more synergy
What Bliss excess was measured for each of the following?

// Bliss excess lookup, compound = CCN(CCO)CCCOc1ccc2c(Nc3cc(CC(=O)Nc4cccc(F)c4)[nH]n3)ncnc2c1 [AZD2811] + C[C@@H]1COCCN1C2=NC(=NC(=C2)C3(CC3)[S@](=N)(=O)C)C4=C5C=CNC5=NC=C4 [AZD6738] (first compound max 1 µM, 7x7, partner max 10 µM) , result: -0.0205

The compound Cc1nc(Nc2ncc(C(=O)Nc3c(C)cccc3Cl)s2)cc(N2CCN(CCO)CC2)n1 [Dasatinib] + CC(=O)Nc1cccc(-n2c(=O)n(C3CC3)c(=O)c3c(Nc4ccc(I)cc4F)n(C)c(=O)c(C)c32)c1 [Trametinib] (first compound max 2 µM, 7x7, partner max 1 µM) showed Bliss excess equal to -0.0987

Value of measured Bliss excess for the entry CC1(C)CCC(CN2CCN(c3ccc(C(=O)NS(=O)(=O)c4ccc(NCC5CCOCC5)c([N+](=O)[O-])c4)c(Oc4cnc5[nH]ccc5c4)c3)CC2)=C(c2ccc(Cl)cc2)C1 [Venetoclax] + C[C@@H]1COCCN1C2=NC(=NC(=C2)C3(CC3)[S@](=N)(=O)C)C4=C5C=CNC5=NC=C4 [AZD6738] (first compound max 1 µM, 7x7, partner max 10 µM) : -0.0369

The reported Bliss excess of the compound NC1(C(=O)N[C@@H](CCO)c2ccc(Cl)cc2)CCN(c2ncnc3[nH]ccc23)CC1 [Capivasertib] + C[C@@H]1COCCN1C2=NC(=NC(=C2)C3(CC3)[S@](=N)(=O)C)C4=C5C=CNC5=NC=C4 [AZD6738] (first compound max 10 µM, 7x7, partner max 10 µM) was -0.0785

Per the records, this compound ( Cn1cnc2c(F)c(Nc3ccc(Br)cc3Cl)c(C(=O)NOCCO)cc21 [Selumetinib] + C[C@@H]1COCCN1C2=NC(=NC(=C2)C3(CC3)[S@](=N)(=O)C)C4=C5C=CNC5=NC=C4 [AZD6738] (first compound max 10 µM, 7x7, partner max 10 µM) ) has Bliss excess equal to -0.0592

Please fill in: Bliss excess reported for Cc1c2c(nn1C)CSCc1cc(n(C)n1)CSc1cc(c3ccccc3c1)OCCCc1c(C(=O)O)n(C)c3c-2c(Cl)ccc13 [AZD5991] + CCN(CCO)CCCOc1ccc2c(Nc3cc(CC(=O)Nc4cccc(F)c4)[nH]n3)ncnc2c1 [AZD2811] (first compound max 1 µM, 7x7, partner max 1 µM) = -0.0575

The measured Bliss excess associated with COc1cc2ncnc(Nc3ccc(F)c(Cl)c3)c2cc1OCCCN1CCOCC1 [Gefitinib] + CC(C)n1c(=O)n(C)c2cnc3cc(F)c(-c4ccc(OCCCN5CCCCC5)nc4)cc3c21 [AZD1390] (first compound max 10 µM, 7x7, partner max 0.3 µM) reads -0.0874

Value source: the supplement of paper PMC11061612
